All figures here come from paper PMC11500415.

Biological target: SCRM (Arabidopsis thaliana, UniProt Q9LSE2)
Construct: SCRM (1-494); made in house; host or cells: E. coli BL21
Sequence (Q9LSE2 whole entry): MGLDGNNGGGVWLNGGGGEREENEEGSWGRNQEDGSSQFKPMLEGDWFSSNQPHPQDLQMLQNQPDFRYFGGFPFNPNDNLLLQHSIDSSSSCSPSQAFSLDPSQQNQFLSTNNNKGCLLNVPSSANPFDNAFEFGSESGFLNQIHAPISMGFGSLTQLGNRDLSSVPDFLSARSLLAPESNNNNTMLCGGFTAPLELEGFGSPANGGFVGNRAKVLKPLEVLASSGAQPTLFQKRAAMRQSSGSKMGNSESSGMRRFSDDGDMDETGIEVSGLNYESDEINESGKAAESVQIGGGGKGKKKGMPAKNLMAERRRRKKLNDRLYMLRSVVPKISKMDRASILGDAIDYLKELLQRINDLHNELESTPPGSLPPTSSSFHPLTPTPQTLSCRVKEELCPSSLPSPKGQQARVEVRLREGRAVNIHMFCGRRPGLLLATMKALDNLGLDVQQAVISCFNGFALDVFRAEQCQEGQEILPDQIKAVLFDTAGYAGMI
Experiment: ITC direct binding
Design: species or system A. thaliana
pKd: −log10 of the molar value.

{"columns": ["molecule", "system_tested", "pKd"],
 "data": [
  ["O=C1C(c2ccccc2)=NC(NS(=O)(=O)c2ccccc2)(c2ccccc2)N1S(=O)(=O)c1ccccc1 (stereo not shown)", "SCRM (Arabidopsis thaliana, UniProt Q9LSE2)", 4.15]
]}

###

Molecular target: MUTE_ACTLR133A_R134A (Arabidopsis thaliana, UniProt Q9M8K6, R133A/R134A)
Construct: MUTE-ACTL (114-202); made in house; host or cells: E. coli BL21
Sequence (Q9M8K6 114-202 R133A/R134A): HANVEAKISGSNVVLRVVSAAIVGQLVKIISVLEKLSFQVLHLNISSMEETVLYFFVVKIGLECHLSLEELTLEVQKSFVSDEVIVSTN
Test: BLI direct binding
Parameters: species or system A. thaliana
Conditions: BLI; MUTE_ACTL R133A_R134A

{"columns": ["molecule", "Kd, µM"],
 "data": [
  ["O=C1C(c2ccccc2)=NC(NS(=O)(=O)c2ccccc2)(c2ccccc2)N1S(=O)(=O)c1ccccc1 (stereo not shown)", 120]
]}
